From: patent US10344049B2

System: human breast cancer cells MDA-MB-468
Assay: Cell viability test (Resazurin), MDA-MB-468 cells
Assay type: cell-based
Applied conditions: MDA-MB-468 cells, 48 hours, 0.1% FCS, Resazurin; read-out: inhibitory concentrations of cell growth activity IC50
Label key: condition met means IC50 under 20 µM; condition not met means IC50 of 20 µM or more.

[[record]]
compound = "CC(=O)O[C@H]1C=C2[C@@H](CC[C@H](O)C2(C)C)[C@]2(C=O)CC[C@]3(C)[C@@H]([C@H](C)C[C@@H](O)C=C(C)C)CC[C@@]3(C)[C@H]12 [Compound 8]"
category = "condition met"


Pending compound:
(Q) API: query returns whether the compound falls strictly under 20 µM in IC50. Query: COC1O[C@]23C=C[C@@H]4[C@@]1(CC[C@]1(C)[C@@H]([C@H](C)C/C=C/C(C)(C)OC)CC[C@@]41C)[C@@H]2CC[C@H](O)C3(C)C (some centres unmarked) [Compound 17]
(A) condition met

---

System: human colorectal cancer cells SW-480
Assay: Cell viability test (Resazurin), SW480 cells
Assay type: cell-based
Parameters: scale not given here
Applied conditions: SW480 cells; grade of the IC50 of Table 2
Measurement kind: evaluation of ability to inhibit cell growth activity (IC50)

[[record]]
molecule = "CO[C@H]1O[C@]23C=C[C@@H]4[C@@]1(CC[C@]1(C)[C@@H]([C@H](C)C/C=C/C(C)(C)O)CC[C@@]41C)[C@@H]2CC[C@H](O)C3(C)C [Compound 20]"
reported_value = "◯"

[[record]]
molecule = "CC(=O)O[C@H]1CC[C@@H]2C(=C[C@H](O)[C@@H]3[C@@]2(C=O)CC[C@]2(C)[C@@H]([C@H](C)C[C@H](C=C(C)C)OC(C)=O)CC[C@@]32C)C1(C)C [Compound 6]"
reported_value = "◯"

[[record]]
molecule = "CC(=O)O[C@H]1C=C2[C@@H](CC[C@H](O)C2(C)C)[C@]2(C=O)CC[C@]3(C)[C@@H]([C@H](C)C[C@@H](O)C=C(C)C)CC[C@@]3(C)[C@H]12 [Compound 8]"
reported_value = "◯"


---

Tested on: human breast cancer cells MDA-MB-231
Assay: Cell viability test (Resazurin), MDA-MB-231 cells
Type: cell-based
Applied conditions: MDA-MB-231 cells, 48 hours, 0.1% FCS, Resazurin; read-out: inhibitory concentrations of cell growth activity IC50
Protocol: Cell viability was determined with Resazurin (at a final concentration of 25 μg/mL).
Entries and their IC50 values follow.
Numeric only. Scale: µM

[[record]]
compound = "COC1O[C@]23C=C[C@@H]4[C@@]1(CC[C@]1(C)[C@@H]([C@H](C)C/C=C/C(C)(C)O)CC[C@@]41C)[C@@H]2CC[C@H](O)C3(C)C (some centres unmarked)"
measurement_kind = "IC50"
reported_value = 22.6

[[record]]
compound = "CC(C)=C[C@H](O)C[C@@H](C)[C@H]1CC[C@@]2(C)[C@@H]3[C@@H](O[C@@H]4O[C@H](CO)[C@@H](O)[C@H](O)[C@H]4O)C=C4[C@@H](CC[C@H](O)C4(C)C)[C@]3(C=O)CC[C@]12C"
measurement_kind = "IC50"
reported_value = 59.4


Let's switch to this compound now.
Item CC(=O)O[C@H]1C=C2[C@@H](CC[C@H](O)C2(C)C)[C@]2(C=O)CC[C@]3(C)[C@@H]([C@H](C)C[C@@H](O)C=C(C)C)CC[C@@]3(C)[C@H]12 was tested on human breast cancer cells MDA-MB-231; the reported IC50 is 5.19
